Each recorded value in this set is attributed to PubChem BioAssay AID628.

# target.of.assay: Muscarinic acetylcholine receptor M1 (Rattus norvegicus)
# assay.method.text: antagonists of rat M1 muscarinic receptor (AID 628)
# test.context: CHO-M1 cells, Fluo-4 calcium, ACh EC80 antagonist mode; at 10 µM
In all, about 64,000 compounds went through this assay and about 2,200 (3.4%) were called active.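 The calls were made as follows: active = calcium fluorescence response, raw or row-and-column corrected B-score, differing from the plate sample mean either way at a set confidence level, mostly lower; inactive = the rest.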 The list comes from a sample in which actives are over-represented; it also holds close analogues and randomly drawn compounds.
Possible outcomes: active, inactive

>>> print(df.to_string())
                                    molecule  assigned_category
 0  COc1cc(C2C(C#N)=C(C)NC3=C2C(=O)CC(C)(C)C3)ccc1O (stereo not drawn)           inactive
 1              CC(=O)N1CCN(c2cccc(C)c2C)CC1           inactive
 2  CC1CCCN(Cc2nc3c(c(=O)n(C)c(=O)n3C)n2Cc2cccc3ccccc23)C1 (stereo not drawn)           inactive
 3      CCC(=O)Nc1sc(C(=O)N2CCCCC2)c(C)c1C#N           inactive
 4  CC(C)(C)n1nnnc1C(c1cccs1)N(Cc1cccnc1)CC1CCCO1 (stereo not drawn)             active
 5            CCOc1cc(/C=N/n2cnnc2)c(Br)cc1O           inactive
 6    Cc1c(CN2CCC(C)CC2)c(=O)n(-c2ccccc2)n1C           inactive
 7                    C(=N\n1cnnc1)/c1cccnc1           inactive
 8      COc1ccccc1OCCOc1ccc(/C=N/n2cnnc2)cc1             active
 9  O=C(NCCC1=CCCCC1)C1CCN(Cc2cnn(-c3ccccc3)c2-n2cccc2)CC1           inactive
10  COc1ccc(CSc2nc(N3CCOCC3)c3c(c2C#N)CC(C)(C)OC3)cc1           inactive
11  CCOC(=O)CSc1nnc(NC(=O)c2cccc(S(=O)(=O)N3CCCCC3)c2)s1           inactive
12  CN1CCN(CC(=O)Nc2sc3c(c2C#N)CCC(C(C)(C)C)C3)CC1 (stereo not drawn)             active
13  Cc1cc2c(cc1C)NC(c1ccccn1)C1=C(CC(C)(C)CC1=O)N2 (stereo not drawn)             active
14    COc1cccc(OCCOc2cccc(/C=N/n3cnnc3)c2)c1             active
15  CCOC(=O)c1[nH]c2ccc(OC)cc2c1NC(=O)CCN1CCN(Cc2ccccc2)CC1             active
16  Cc1ccc2c(c1)NCC(C(=O)NC1CCC(C)CC1)O2 (stereo not drawn)           inactive
17  CCCN1C2=C(C(=O)CCC2)C(c2ccc(O)c(Br)c2)C2=C1CCCC2=O           inactive

###

Overview of reported B-score across a group of compounds:
# target.of.assay: Muscarinic acetylcholine receptor M1 (Rattus norvegicus)
# assay.method.text: antagonists of rat M1 muscarinic receptor (AID 628)
# test.context: CHO-M1 cells, Fluo-4 calcium, ACh EC80 antagonist mode; at 10 µM; stronger effect = lower value
About 2,200 (3.4%) of roughly 64,000 compounds were called active. This excerpt belongs to a sample that is enriched for actives.
measurement.type: B-score

                                    compound                           target_of_assay  measurement_type  assay_value
 0                 O=C(O)c1ccc(-n2cccc2)cc1O  Muscarinic acetylcholine receptor M1 (Rattus norvegicus)           B-score       -0.249
 1  Cc1ccc(NC(=O)CN(C)S(=O)(=O)c2cnc[nH]2)cc1C  Muscarinic acetylcholine receptor M1 (Rattus norvegicus)           B-score       0.0747
 2  COC(=O)C(NC(C)=O)(Nc1nc2c(s1)CCCC2)C(F)(F)F (stereo not drawn)  Muscarinic acetylcholine receptor M1 (Rattus norvegicus)           B-score        0.181
 3            Clc1ccc(Nc2nc(-c3cccs3)cs2)nc1  Muscarinic acetylcholine receptor M1 (Rattus norvegicus)           B-score        -1.85
 4  C1=C(N2CCOCC2)/C(=C/c2nc3ccccc3[nH]2)CC1  Muscarinic acetylcholine receptor M1 (Rattus norvegicus)           B-score        0.998
 5  CCOC(=O)C1CCN(c2ncnc3c2oc2ccc(Br)cc23)CC1  Muscarinic acetylcholine receptor M1 (Rattus norvegicus)           B-score         1.09
 6      O=C(c1ccccc1)c1ccc(OC(=O)N2CCCC2)cc1  Muscarinic acetylcholine receptor M1 (Rattus norvegicus)           B-score       -0.578
 7  CCOC(=O)N1CCN(C(=O)C2CCN(c3ncnc4c3sc3cccc(F)c34)CC2)CC1  Muscarinic acetylcholine receptor M1 (Rattus norvegicus)           B-score        -6.68
 8  COc1cc(C2C(C(=O)Nc3ccc(F)cc3)=C(C)Nc3nc(CCCO)nn32)cc(OC)c1OC (stereo not drawn)  Muscarinic acetylcholine receptor M1 (Rattus norvegicus)           B-score        0.464
 9  CCCCNc1nc2c(c(=O)n(C)c(=O)n2C)n1Cc1cccc(OC)c1  Muscarinic acetylcholine receptor M1 (Rattus norvegicus)           B-score      -0.0697
10  COCCn1c(CN(Cc2ccccc2)Cc2ccccc2)nc2c1c(=O)n(C)c(=O)n2C  Muscarinic acetylcholine receptor M1 (Rattus norvegicus)           B-score      0.00241
11            O=C(COc1ccc(Cl)cc1)Nc1ccccc1CO  Muscarinic acetylcholine receptor M1 (Rattus norvegicus)           B-score        0.609
12  Cc1cccc2cc(CN(Cc3ccc4c(c3)OCO4)Cc3nnnn3C3CCCC3)c(=O)[nH]c12  Muscarinic acetylcholine receptor M1 (Rattus norvegicus)           B-score       -0.601
13  CC(C)(C)c1cc(CN2CCN(CCC#N)CC2)cc(C(C)(C)C)c1O  Muscarinic acetylcholine receptor M1 (Rattus norvegicus)           B-score        -3.57
14            COC(=O)COc1ccc2oc(=O)cc(C)c2c1  Muscarinic acetylcholine receptor M1 (Rattus norvegicus)           B-score        0.286
15  Cc1c(C(=O)NCC2CCCO2)sc2nc(-c3ccccc3)cn12 (stereo not drawn)  Muscarinic acetylcholine receptor M1 (Rattus norvegicus)           B-score       0.0376
16  CN(CCCC(=O)Nc1nccs1)S(=O)(=O)c1ccc(Cl)cc1  Muscarinic acetylcholine receptor M1 (Rattus norvegicus)           B-score        0.248
17  CCOC(=O)N1CCN(C(=O)C2CCCN(c3ncnc4c3sc3cccc(F)c34)C2)CC1 (stereo not drawn)  Muscarinic acetylcholine receptor M1 (Rattus norvegicus)           B-score        -6.95
18  CCOc1ccc(CN(Cc2ccco2)C(c2cccs2)c2nnnn2C(C)(C)C)cc1 (stereo not drawn)  Muscarinic acetylcholine receptor M1 (Rattus norvegicus)           B-score      -0.0188
19  CCOc1ccccc1C1C(C(=O)OC)=CN(C)C=C1C(=O)OC  Muscarinic acetylcholine receptor M1 (Rattus norvegicus)           B-score        0.428
20  Cc1nc(SCC(=O)Nc2cc(C)on2)c2c3c(sc2n1)CCCC3  Muscarinic acetylcholine receptor M1 (Rattus norvegicus)           B-score       -0.235
21           Cc1[nH]c2ccccc2c1C(=O)CSCC(=O)O  Muscarinic acetylcholine receptor M1 (Rattus norvegicus)           B-score       -0.627
22  Cc1ccnc(SCCn2c(N(C)Cc3ccccc3)nc3c2c(=O)n(C)c(=O)n3C)n1  Muscarinic acetylcholine receptor M1 (Rattus norvegicus)           B-score        0.589

###

# target.of.assay: Muscarinic acetylcholine receptor M1 (Rattus norvegicus)
# assay.method.text: antagonists of rat M1 muscarinic receptor (AID 628)
# test.context: CHO-M1 cells, Fluo-4 calcium, ACh EC80 antagonist mode; at 10 µM; stronger effect = lower value
Hit rate of the full screen: of about 64,000 compounds, about 2,200 (3.4%) were called active. This is one part of a sample in which actives are shown more often than they occur.
We label by threshold. Values of B-score strictly beneath -0.3 are met. Values of -0.3 and up are not met.

>>> print(df.to_string())
                                    compound  assigned_category
 0    O=S(=O)(O)c1nc2ccccc2n1Cc1ccc(Cl)cc1Cl            not met
 1  Cc1cccn2c(=O)c3cc(C(=O)N4COCC4(C)C)n(C)c3nc12                met
 2    COc1ccc(F)cc1S(=O)(=O)Nc1ccc2c(c1)OCO2            not met
 3         O=c1c2c(nc3n1CCCCC3)sc1c(O)cccc12                met
 4                      Cc1ccc(C)n1-c1ccncc1            not met
 5  O=C(CCCN1C(=O)CSc2ncccc21)N1CCN(c2cccc(C(F)(F)F)c2)CC1                met
 6  C[C@H](NC(=O)OC(C)(C)C)c1nnc(SCC(=O)Nc2ccc(Br)cc2)o1            not met
 7  CCCc1[nH]nc2c1C(c1ccc(OC)c(Cn3nc(C)c(Br)c3C)c1)C(C#N)=C(N)O2 (stereo not drawn)                met
 8        O=C(c1ccco1)N1CCN(c2cccc(Cl)c2)CC1                met
 9  Fc1ccc2[nH]c3c(N4CCN(Cc5ccc6c(c5)OCO6)CC4)ncnc3c2c1            not met
10  CC1(C)NC(=O)N(CCOc2cccc(Oc3ccccc3)c2)C1=O                met
11  Cc1cccc(NC(=O)CSc2nnc(NC(=O)CN3CCOCC3)s2)c1                met
12  CCOC(=O)c1cccc(NC(=O)C2CCCN(S(=O)(=O)c3cnc[nH]3)C2)c1 (stereo not drawn)            not met
13  CCC(=O)c1ccc(OCC(O)CN2C(=O)NC(C)(C)C2=O)cc1 (stereo not drawn)            not met
14            Cc1ccccc1Cn1c(=O)[nH]c2ccccc21                met
15  Cc1cccn2c(=O)c3cc(C#N)c(=NC(=O)c4cccnc4)n(CC4CCCO4)c3nc12 (stereo not drawn)                met
16  Cc1ccc(-c2nn(-c3ccccc3)cc2CN(Cc2ccccc2)C(=O)CCC(=O)O)o1            not met
17               CCN1C(=O)c2cccc3c(N)ccc1c23            not met
18  Cc1cccn2c(=O)c3cc(C#N)c(=O)n(CCCN4CCOCC4)c3nc12                met
19  COc1ccccc1N(CC(=O)N1CCCCC1)S(=O)(=O)c1ccccc1                met
20  CCOc1ccc(N(CC(=O)OC)S(=O)(=O)c2c(C)noc2C)cc1            not met
21  Cn1cccc1C(=O)NC(=O)COC(=O)Cc1coc2ccc3ccccc3c12            not met
22  Cc1ccc(-n2ncc3c(N4CCN(c5ccc(F)cc5)CC4)ncnc32)c(C)c1            not met
23  Cc1nc2sc(C(c3ccco3)N3CCC4(CC3)OCCO4)c(O)n2n1 (stereo not drawn)            not met
24  Cc1ccc(NC(=O)N2CCC(C(=O)NCc3ccc(F)cc3)CC2)cc1            not met
25  CC(C)c1nnc(NC(=O)C2CCCN2S(=O)(=O)c2ccc(Cl)cc2)s1 (stereo not drawn)            not met
26                CC1=Nn2c(nnc2-c2ccccc2)SC1                met
27        COC(=O)c1cn(-c2ccccc2)nc1-c1cccnc1            not met
28  CCN(c1ccc2c(c1)OCO2)S(=O)(=O)c1cc(Br)cc2c1N(C(=O)C1CC1)CC2                met
29  COC(=O)c1cc(NC2c3ccccc3C(=O)N2c2ccc(Cl)cn2)cc(C(=O)OC)c1 (stereo not drawn)            not met
30    CC1(C)Cc2c(sc3nc4n(c(=N)c23)CCCCC4)CO1                met
31  CC(=O)c1c(N2CCOCC2)nc(=S)n(-c2cc(C)ccc2C)c1C                met
